Ref: ChEMBL document CHEMBL2040848

Test system: Staphylococcus aureus
Assay: Antibacterial activity against Staphylococcus aureus KCTC 503 after 24 hrs by two-fold serial dilution method
Format: functional
Conditions: KCTC 503, 24 h
QUANTITY NAME: MIC (µg/mL)
# unit: µg/mL | format: bare number

* COc1ccccc1C(=O)COc1ccc(/C=C2\SC(=S)N([C@@H](Cc3ccc(O)cc3)C(=O)O)C2=O)cc1 | 8
* O=C(COc1ccc(/C=C2\SC(=S)N([C@@H](Cc3c[nH]c4ccccc34)C(=O)O)C2=O)cc1)c1ccccc1 | 8
* O=C(COc1ccc(/C=C2\SC(=S)N([C@@H](Cc3ccc(O)cc3)C(=O)O)C2=O)cc1)c1ccc(Cl)cc1 | 8
* Cc1onc(-c2ccccc2)c1C(=O)N[C@@H]1C(=O)N2[C@@H]1SC(C)(C)[C@@H]2C(=O)O | 1
* O=C(COc1ccc(/C=C2\SC(=S)N([C@@H](Cc3c[nH]c4ccccc34)C(=O)O)C2=O)cc1)c1cccc(Cl)c1 | 4

# query: MIC of entry O=C(COc1ccc(/C=C2\SC(=S)N([C@@H](Cc3c[nH]c4ccccc34)C(=O)O)C2=O)cc1)c1ccccc1Cl
4

# query: MIC of entry O=C(COc1ccc(/C=C2\SC(=S)N([C@@H](Cc3ccccc3)C(=O)O)C2=O)cc1)c1ccccc1
8

# query: MIC of entry Cc1ccc(C(=O)COc2ccc(/C=C3\SC(=S)N([C@@H](Cc4c[nH]c5ccccc45)C(=O)O)C3=O)cc2)cc1
4

# query: MIC of entry Cc1ccc(C(=O)COc2ccc(/C=C3\SC(=S)N([C@@H](Cc4ccc(O)cc4)C(=O)O)C3=O)cc2)cc1
8

# query: MIC of entry O=C(COc1ccc(/C=C2\SC(=S)N([C@@H](Cc3c[nH]c4ccccc34)C(=O)O)C2=O)cc1)c1ccccc1F
8

# query: MIC of entry O=C(COc1ccc(/C=C2\SC(=S)N([C@@H](Cc3c[nH]c4ccccc34)C(=O)O)C2=O)cc1)c1ccc(F)cc1
4
